# subject.of.test: T1, human CD47ECD His tagged protein (human, UniProt Q08722 19-139, limits assumed)
# T1 construct: extracellular domain; also called HuCD47ECD 8xHis; monovalent CD47ECD His tagged protein
# assay.text: ELISA ligand blocking, plate coated with human CD47 ECD His tagged protein at 1 ug/ml; blocked ligand human SIRPaECD muFc at 1 ug/ml, anti-mouse IgG-HRP
attribute.measured: IC50 (µg/mL)
Output spec: scalar in µg/mL, unitless text.

// solved cases for IC50 follow
D36S4 mouse/human chimeric anti-human CD47 antibody (antibody, V domains shown, also called chimeric D36S4 antibody; D36S4 H/L) VH: EVKLEESGGGLVQPGGSMKLSCVASGFTFSRYWMNWVRQSPDKGLEWVAQIRLKSDNYETHYAESVKGRFTISRDDSKSSVYLQMNNLRAEDTGIYYCIEEGGYYVPFAYWGQGTLVTVSA VL: DIVVSQSPSSLAVSAGEKVTMSCKSSQSLFKSRTRKNYLAWYQQRPGQSPKLLIYWASIRESGVPDRFTGSGSGTEFTLTISSVQAEDLAVYYCKQSYYLLTFGAGTKLELK : 0.07
HuD36S4 H2/L1 humanized anti-CD47 antibody (antibody, V domains shown) VH: EVQLVESGGGLVQPGGSLRLSCAASGFTFSRYWMNWVRQAPGKGLEWVGQIRLKSDNYETHYAESVKGRFTISRDDSKNSLYLQMNSLKTEDTAVYYCIEEGGYYVPFAYWGQGTLVTVSS VL: DIVMTQSPDSLAVSLGERATINCKSSQSLFKSRTRKNYLAWYQQKPGQPPKLLIYWASIRESGVPDRFSGSGSGTDFTLTISSLQAEDVAVYYCKQSYYLLTFGGGTKVEIK : 0.09
HuD36S4 H1/L2 humanized anti-CD47 antibody (antibody, V domains shown) VH: EVQLVESGGGLVQPGGSLRLSCAASGFTFSRYWMNWVRQAPGKGLEWVGQIRLKSDNYETHYAESVKGRFTISRDDSKNSLYLQMNSLKTEDTAVYYCAREGGYYVPFAYWGQGTLVTVSS VL: DIVMTQTPLSLPVTPGEPASISCKSSQSLFKSRTRKNYLAWYLQKPGQSPQLLIYWASIRESGVPDRFSGSGSGTDFTLKISRVEAEDVGVYYCKQSYYLLTFGGGTKVEIK : 2.76
HuD36S4 H3/L2 humanized anti-CD47 antibody (antibody, V domains shown) VH: EVQLVESGGGLVQPGGSLRLSCAASGFTFSRYWMNWVRQAPGKGLEWVAQIRLKSDNYETHYAESVKGRFTISRDDSKSSLYLQMNSLKTEDTAVYYCIEEGGYYVPFAYWGQGTLVTVSS VL: DIVMTQTPLSLPVTPGEPASISCKSSQSLFKSRTRKNYLAWYLQKPGQSPQLLIYWASIRESGVPDRFSGSGSGTDFTLKISRVEAEDVGVYYCKQSYYLLTFGGGTKVEIK : 0.1
HuD36S4 H3/L1 humanized anti-CD47 antibody (antibody, V domains shown) VH: EVQLVESGGGLVQPGGSLRLSCAASGFTFSRYWMNWVRQAPGKGLEWVAQIRLKSDNYETHYAESVKGRFTISRDDSKSSLYLQMNSLKTEDTAVYYCIEEGGYYVPFAYWGQGTLVTVSS VL: DIVMTQSPDSLAVSLGERATINCKSSQSLFKSRTRKNYLAWYQQKPGQPPKLLIYWASIRESGVPDRFSGSGSGTDFTLTISSLQAEDVAVYYCKQSYYLLTFGGGTKVEIK : 0.17

[Q] Item under review: HuD36S4 H2/L2 humanized anti-CD47 antibody (antibody, V domains shown) VH: EVQLVESGGGLVQPGGSLRLSCAASGFTFSRYWMNWVRQAPGKGLEWVGQIRLKSDNYETHYAESVKGRFTISRDDSKNSLYLQMNSLKTEDTAVYYCIEEGGYYVPFAYWGQGTLVTVSS VL: DIVMTQTPLSLPVTPGEPASISCKSSQSLFKSRTRKNYLAWYLQKPGQSPQLLIYWASIRESGVPDRFSGSGSGTDFTLKISRVEAEDVGVYYCKQSYYLLTFGGGTKVEIK . Reported IC50?
[A] 0.11
